Reference for the values: patent US9340535B2

- procedureDetails: Exposure in repeated dose 13-week toxicity study (free base)
- conditionLabel: female, rat, in vivo, 10 mg/kg/day, rats, F, 10 mg/kg/day, week 13, 13-week toxicity study; read-out: AUC(0-24)
propertyLabel: AUC(0-t) (µg·h/mL)
Numeric answer only, unit µg·h/mL assumed.

Input: Need AUC(0-t) of Cc1nc(N(C)C(=O)Cc2ccc(-c3ccccn3)cc2)sc1S(N)(=O)=O [Free base] , thanks.
Output: 211

---

- procedureDetails: Stability to decomposition: storage at 90° C. for one week
propertyLabel: Stability to decomposition

Cc1nc(N(C)C(=O)Cc2ccc(-c3ccccn3)cc2)sc1S(N)(=O)=O [Free base]    ++
Cc1ccc(S(=O)(=O)O)cc1.Cc1nc(N(C)C(=O)Cc2ccc(-c3ccccn3)cc2)sc1S(N)(=O)=O [1xTsOH]    −
Cc1nc(N(C)C(=O)Cc2ccc(-c3ccccn3)cc2)sc1S(N)(=O)=O.Cl [1xHCl]    ++
CS(=O)(=O)O.Cc1nc(N(C)C(=O)Cc2ccc(-c3ccccn3)cc2)sc1S(N)(=O)=O.O [Mesylate monohydrate]    ++
